- Tested on: NCI-H23
- TEST DETAILS: NCI tumour cell line growth inhibition, 48 h
Calls of active or inactive are those of the source. Cut-off read from the data, not from the text of the source: active = GI50 up to about 1.1 µM and inactive = higher.
Just give me one of these, please: Yes for active, No for inactive

[
  {
    "COMPOUND": "Cc1ccc2nc(-c3ccccc3)cc(=O)n2c1",
    "CATEGORY": "No"
  }
]

Enquiry: For `COC(=O)Cc1cccc2c(=O)c(S(=O)(=O)NC(=O)Nc3ccc(Cl)cc3)c(-c3ccccc3)oc12` , what call appears in the results of this test?
Return: No

* * *

- System: ACHN
- TEST DETAILS: NCI tumour cell line growth inhibition, 48 h
Calls of active or inactive are those of the source. Rule as the data show it: active = GI50 up to about 1.1 µM and inactive = higher.
Lab note: assign the record to one of yes (active), no (inactive)

Enquiry: Name the outcome recorded for C[C@@H]1CCC2[C@@H](C)[C@H](O[C@H]3O[C@@H]4O[C@@]5(C)CCC6[C@H](C)CCC([C@H]3C)[C@]64OO5)O[C@@H]3O[C@@]4(C)CCC1[C@@]23OO4 (stereo partly drawn) in the assay.
Return: yes

Enquiry: # outcome recorded in this test, key = `[O-]c1c2c(nn1-c1ccc(Cl)cc1)c1ccccc1c[n+]2Cc1ccccc1`
Return: no
